Assay: Nonclinical pharmacokinetics in dogs
Parameters: species or system dog
Settings: dog, in vivo, dogs; read-out: terminal phase half-life (converted)
quantity: half-life

State the recorded half-life for this entry: H-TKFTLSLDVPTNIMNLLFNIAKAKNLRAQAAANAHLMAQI-NH2 [SEQ ID NO: 1]
~1 h

* * *

Experiment: Nonclinical pharmacokinetics in rats
Design: species or system rat
Details: male, in vivo; rat IV infusion 3 hours, M, 83.3 ng/kg/min
quantity: Cmax (ng/mL)
Answers are plain numbers, in ng/mL.

State the recorded Cmax for this entry: H-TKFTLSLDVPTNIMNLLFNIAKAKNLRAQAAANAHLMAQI-NH2 [SEQ ID NO: 1]
0.752

* * *

Test: Nonclinical pharmacokinetics in rats
Parameters: species or system rat
Conditions: male, in vivo, 3000 ng/kg; rat IV bolus, M, 3,000 ng/kg
quantity: AUC(0-inf)

State the recorded AUC(0-inf) for this entry: H-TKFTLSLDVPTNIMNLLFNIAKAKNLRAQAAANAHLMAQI-NH2 [SEQ ID NO: 1]
0.522 ng·h/mL

* * *

Assay: Nonclinical pharmacokinetics in cynomolgus monkeys
Details: female, cynomolgus monkey, in vivo; cyno IV infusion 3 hours, F, 16.7 ng/kg/min; read-out: CL
quantity: clearance (mL/min/kg)
Numbers only, in mL/min/kg.

State the recorded clearance for this entry: H-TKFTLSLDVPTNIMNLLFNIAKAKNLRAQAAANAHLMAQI-NH2 [SEQ ID NO: 1]
39.7

* * *

Biological target: human CRHR2 (Homo sapiens, UniProt Q13324)
Construct: expressed in transfected cells
Sequence (Q13324 whole entry): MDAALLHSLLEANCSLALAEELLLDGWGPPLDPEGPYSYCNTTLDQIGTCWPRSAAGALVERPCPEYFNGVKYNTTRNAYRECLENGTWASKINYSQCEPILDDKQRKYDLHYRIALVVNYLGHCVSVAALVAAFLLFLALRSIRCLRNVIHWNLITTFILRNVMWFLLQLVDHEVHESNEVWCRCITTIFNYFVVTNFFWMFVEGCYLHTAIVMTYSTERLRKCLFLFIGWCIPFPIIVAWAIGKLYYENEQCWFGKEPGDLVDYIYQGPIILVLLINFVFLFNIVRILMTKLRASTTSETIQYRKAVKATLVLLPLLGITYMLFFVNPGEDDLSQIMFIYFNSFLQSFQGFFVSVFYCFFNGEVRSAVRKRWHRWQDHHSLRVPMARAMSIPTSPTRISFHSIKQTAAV
Assay: cAMP assay, h-CRHR2 transfected SK-N-MC cells
Type: cell-based
Details: Table 12
Where no end group is shown, it is not given here.
quantity: nH
Answers are plain numbers.

See these solved cases before continuing.
H-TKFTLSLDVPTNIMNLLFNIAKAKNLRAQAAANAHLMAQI-NH2 [SEQ ID NO: 1]; 1.18
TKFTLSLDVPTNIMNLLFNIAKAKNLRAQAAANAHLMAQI-OH [SEQ ID NO: 113]; 1.07
LSLDVPTNIMNLLFNIAKAKNLRAQAAANAHLMAQI-NH2 [SEQ ID NO: 109]; 0.74
TLSLDVPTNIMNLLFNIAKAKNLRAQAAANAHLMAQI-NH2 [SEQ ID NO: 108]; 0.82

Then this substance:
# get_value(readout= nH, system= human CRHR2 (Homo sapiens, UniProt Q13324)) for KFTLSLDVPTNIMNLLFNIAKAKNLRAQAAANAHLMAQI-NH2 [SEQ ID NO: 107]
1.07
